test method notes: Absorption and emission spectra of dyes in different solvents
Format: physicochemical
Set-up: scale not given here
run conditions: solvent THF
experimental readout: ε1 (molar extinction coefficient) (cm^−1M)

mol	measurement
CCN1/C(=C/C=C/C(=C/C2=[N+](CC)c3ccccc3C2(C)C)N(Cc2ccccc2)Cc2ccccc2)C(C)(C)c2ccccc21	4.0
CCN1/C(=C/C=C/C(=C/C2=[N+](CC)c3ccccc3C2(C)C)NCc2ccccc2)C(C)(C)c2ccccc21	2.9
CCN(CC)C(=C\C1=[N+](CC)c2ccccc2C1(C)C)/C=C/C=C1/N(CC)c2ccccc2C1(C)C	4.1
CCN1/C(=C/C=C/C(=C/C2=[N+](CC)c3ccccc3C2(C)C)NCCO)C(C)(C)c2ccccc21	3.6
CCN1/C(=C/C=C/C(=C/C2=[N+](CC)c3ccccc3C2(C)C)Nc2ccccc2)C(C)(C)c2ccccc21	0.9

I = CCN1/C(=C/C=C/C(=C/C2=[N+](CC)c3ccccc3C2(C)C)N(CCO)CCO)C(C)(C)c2ccccc21
II = CCN1/C(=C/C=C/C(N)=C/C2=[N+](CC)c3ccccc3C2(C)C)C(C)(C)c2ccccc21
## Task Hi there! Just curious which has the higher ε1 (molar extinction coefficient) between I and II . Please respond with the label that marks your chosen entry.
## Result II

====

test method notes: Absorption and emission spectra of dyes in different solvents
Format: physicochemical
run conditions: solvent THF
experimental readout: λbs2 (nm)

mol	measurement
CCN1/C(=C/C=C/C(=C/C2=[N+](CC)c3ccccc3C2(C)C)N(Cc2ccccc2)Cc2ccccc2)C(C)(C)c2ccccc21	453
CCN(CC)C(=C\C1=[N+](CC)c2ccccc2C1(C)C)/C=C/C=C1/N(CC)c2ccccc2C1(C)C	450
CCN1/C(=C/C=C/C(=C/C2=[N+](CC)c3ccccc3C2(C)C)N(CCO)CCO)C(C)(C)c2ccccc21	450
CCN1/C(=C/C=C/C(=C/C2=[N+](CC)c3ccccc3C2(C)C)Nc2ccccc2)C(C)(C)c2ccccc21	403

====

test method notes: Absorption and emission spectra of dyes in different solvents
Assay type: physicochemical
run conditions: solvent Water
experimental readout: λbs2 (nm)

mol	measurement
CCN(CC)C(=C\C1=[N+](CC)c2ccccc2C1(C)C)/C=C/C=C1/N(CC)c2ccccc2C1(C)C	448
CCN1/C(=C/C=C/C(N)=C/C2=[N+](CC)c3ccccc3C2(C)C)C(C)(C)c2ccccc21	416
CCN1/C(=C/C=C/C(=C/C2=[N+](CC)c3ccccc3C2(C)C)NCc2ccccc2)C(C)(C)c2ccccc21	429

====

test method notes: Absorption and emission spectra of dyes in different solvents
Format: physicochemical
run conditions: solvent Water
experimental readout: λem (nm)

mol	measurement unit	measurement
CCN1/C(=C/C=C/C(=C/C2=[N+](CC)c3ccccc3C2(C)C)Nc2ccccc2)C(C)(C)c2ccccc21	nm	640
CCN1/C(=C/C=C/C(=C/C2=[N+](CC)c3ccccc3C2(C)C)NCCO)C(C)(C)c2ccccc21	nm	620
CCN(CC)C(=C\C1=[N+](CC)c2ccccc2C1(C)C)/C=C/C=C1/N(CC)c2ccccc2C1(C)C	nm	600
CCN1/C(=C/C=C/C(=C/C2=[N+](CC)c3ccccc3C2(C)C)N(Cc2ccccc2)Cc2ccccc2)C(C)(C)c2ccccc21	nm	618

====

test method notes: Measurement of fluorescence quantum yield (Rhodamine B in ethanol as reference)
Type: physicochemical
run conditions: solvent Water
experimental readout: Φ2 (fluorescence quantum yield)

molecule	Φ2 (fluorescence quantum yield)
CCN1/C(=C/C=C/C(=C/C2=[N+](CC)c3ccccc3C2(C)C)Nc2ccccc2)C(C)(C)c2ccccc21 [Dye IIg]	0.001
CCN1/C(=C/C=C/C(=C/C2=[N+](CC)c3ccccc3C2(C)C)N(CCO)CCO)C(C)(C)c2ccccc21 [Dye IIc]	0.001
CCN1/C(=C/C=C/C(=C/C2=[N+](CC)c3ccccc3C2(C)C)NCc2ccccc2)C(C)(C)c2ccccc21 [Dye IIe]	0.001

A = CCN(CC)C(=C\C1=[N+](CC)c2ccccc2C1(C)C)/C=C/C=C1/N(CC)c2ccccc2C1(C)C [Dye IId]
B = CCN1/C(=C/C=C/C(=C/C2=[N+](CC)c3ccccc3C2(C)C)NCCO)C(C)(C)c2ccccc21 [Dye IIb]
## Task Hi there! Just curious which has the higher Φ2 (fluorescence quantum yield) between A and B . Please respond with the label that marks your chosen entry.
## Result B
(B: 0.002, A: 0.001)

A = CCN1/C(=C/C=C/C(N)=C/C2=[N+](CC)c3ccccc3C2(C)C)C(C)(C)c2ccccc21 [Dye IIa]
B = CCN1/C(=C/C=C/C(=C/C2=[N+](CC)c3ccccc3C2(C)C)N(Cc2ccccc2)Cc2ccccc2)C(C)(C)c2ccccc21 [Dye IIf]
## Task Hi there! Just curious which has the higher Φ2 (fluorescence quantum yield) between A and B . Please respond with the label that marks your chosen entry.
## Result B
(B: 0.002, A: 0.001)
